# Test system: MATIN
# testName: Herbicidal pre-emergence action 2b (doubly sown, 1280 g/ha)
# Format: in vivo, Matricaria inodora
# runParameters: doubly sown pots, dosage 1280 g/ha, visual scoring after about 3 weeks
readoutKind: Pre-emergence action at 1280 g/ha against MATIN in % (%)

compound | recordedMeasurement
COC(=O)[C@@H](C)Oc1nn(-c2cnccn2)c(-c2cncc(F)c2)c1C#N [Example I-40] | 100
CCOC(=O)COc1nn(-c2cnccn2)c(-c2ccc(F)nc2)c1C(F)(F)F [Example I-66] | 100
O=C(O)COc1nn(-c2nccnc2Cl)c(-c2ccc(F)nc2)c1Br [Example I-73] | 100
COC(=O)[C@@H](C)Oc1nn(-c2cnccn2)c(-c2ccc(F)c(F)c2)c1Br [Example I-45] | 100
CCOC(=O)COc1nn(-c2cnccn2)c(-c2ccc(F)nc2)c1Br [Example I-52] | 90
COC(=O)C(C)Oc1nn(-c2cnccn2)c(-c2ccc(F)c(F)c2)c1C#N (racemic) [Example I-22] | 90
